# SYSTEM: HER2-TK (Homo sapiens, UniProt P04626)
# Sequence (P04626 676-1255 limits assumed): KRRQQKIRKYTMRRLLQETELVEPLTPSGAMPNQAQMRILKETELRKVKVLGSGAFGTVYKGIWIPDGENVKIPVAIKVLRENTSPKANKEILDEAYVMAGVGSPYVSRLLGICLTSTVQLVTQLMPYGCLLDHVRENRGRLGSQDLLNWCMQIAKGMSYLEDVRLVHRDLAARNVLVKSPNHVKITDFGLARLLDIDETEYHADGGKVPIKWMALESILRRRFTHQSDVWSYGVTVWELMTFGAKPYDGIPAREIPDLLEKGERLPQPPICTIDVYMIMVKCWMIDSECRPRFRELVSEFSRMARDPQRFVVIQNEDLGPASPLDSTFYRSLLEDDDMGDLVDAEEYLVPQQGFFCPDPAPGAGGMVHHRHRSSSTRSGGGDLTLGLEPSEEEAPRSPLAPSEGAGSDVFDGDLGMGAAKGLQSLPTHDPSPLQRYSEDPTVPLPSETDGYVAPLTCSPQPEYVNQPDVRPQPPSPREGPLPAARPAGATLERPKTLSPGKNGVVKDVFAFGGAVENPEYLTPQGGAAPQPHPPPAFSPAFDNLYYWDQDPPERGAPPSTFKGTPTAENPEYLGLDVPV
OBSERVATION_TYPE: pKd
Give bare numbers, as −log10 of the molar value.

C=C(C)[C@@H]1CCC(C)=C[C@H]1c1c(O)cc(CCCCC)cc1O; 5.21

Kindly give each listed record's pKd.
1. CCCCCc1cc(O)c2c(c1)OC(C)(C)c1ccc(C)cc1-2
2. CCCCCc1cc(O)c(C/C=C(\C)CCC=C(C)C)c(O)c1

1: 4.59; 2: 4.77

###

# SYSTEM: HER2-TK (Homo sapiens, UniProt P04626)
# PROCEDURE_TEXT: SPR kinetic analysis of binding to immobilized HER2-TK
# EXPERIMENTAL_SETUP: SPR, PBS pH 7.4 with 5% DMSO, mean ± SD
OBSERVATION_TYPE: kd

Examples with answers:
C=C(C)[C@@H]1CCC(C)=C[C@H]1c1c(O)cc(CCCCC)cc1O [CBD, cannabidiol]; 6.33 ± 0.06 10^–3/s
CCCCCc1cc(O)c(C/C=C(\C)CCC=C(C)C)c(O)c1 [CBG, cannabigerol]; 3.77 ± 0.02 10^–3/s
CN(C)C/C=C/C(=O)Nc1cc2c(Nc3ccc(F)c(Cl)c3)ncnc2cc1O[C@H]1CCOC1 [Afatinib, reference compound]; 9.95 ± 0.16 10^–3/s

Reported kd, compound CCCCCc1cc(O)c2c(c1)OC(C)(C)c1ccc(C)cc1-2 [CBN, cannabinol] : ____
3.14 ± 0.09 10^–3/s

Hello, the source for this data is paper PMC11840771, in case you need it.
